- Target or test system: 15-PGDH (Homo sapiens, UniProt P15428)
- Construct: purchased Sino Biological Inc. 11205-H08E
- Assay: Detection of Activity of 15-PGDH Kinase (inhibition of 15-PGDH enzyme)
- Type: biochemical
- Condition description: class symbols; substrates β-NAD and PGF2α, pH 7.5, fluorescence Ex/Em=340/450; read-out: IC50
Property label: IC50

>>> df
                                   compound      result
0  O=C(c1ccc2c(c1)nc(-c1ccc3nccn3c1)n1ccnc21)N1CCCCC1  5 to 10 nM

In: Consider the compound shown here: CN1Cc2cc(-c3nc4cc(C(=O)N5CCCCC5)ccc4c4cccn34)ccc2C1=O What is its recorded IC50?
Out: < 2 nM

In: Consider the compound shown here: CN1Cc2cc(C3=Nc4cc(C(=O)N5CCCCC5)ccc4N4CC(C)(C)N=C34)ccc2C1=O What is its recorded IC50?
Out: < 2 nM
